Provide the reported Secreted PCSK9 of each item.
test system: human PCSK9 locus; assay: Secreted PCSK9 by ELISA in Huh7 cells transfected with mRNA and gRNA; assay type: cell-based; details: Huh7 cells, LTRP5-ADD-ZIM3 mRNA + gRNA scaffold 316, 50 ng mRNA:25 ng gRNA, 6 days post-transfection, normalized to total cell count
Give just the number in ng/mL; leave the unit off.

Ask: Request the reported Secreted PCSK9 associated with TG-06-120 (guide CUCGGAAUCUGCUGUGCAUC; listed as RNA, chemistry not given here)
Result: 21.43

Ask: Request the reported Secreted PCSK9 associated with TG-06-123 (guide UCCCAGUAUCGACAGCCCUU; listed as RNA, chemistry not given here)
Result: 30.49

Ask: Request the reported Secreted PCSK9 associated with TG-06-139 (guide AGGAGCAGCUAGUUGGUAAG; listed as RNA, chemistry not given here)
Result: 15.03

Ask: Request the reported Secreted PCSK9 associated with TG-06-127 (guide UCCUCCUGCCUGGUACACAA; listed as RNA, chemistry not given here)
Result: 22.57

Ask: Request the reported Secreted PCSK9 associated with TG-06-167 (guide CACUGAAUAGCGCAGCCGCA; listed as RNA, chemistry not given here)
Result: 39.55

Ask: Request the reported Secreted PCSK9 associated with TG-06-152 (guide GCCUCGCCCUCCCCAAACAG; listed as RNA, chemistry not given here)
Result: 36.95

Ask: Request the reported Secreted PCSK9 associated with TG-06-171 (guide CAGUACGUUCCAGGCAUUCA; listed as RNA, chemistry not given here)
Result: 52.41

Ask: Request the reported Secreted PCSK9 associated with TG-06-161 (guide GCUCCUGCACAGUCCUCCCC; listed as RNA, chemistry not given here)
Result: 29.55

Ask: Request the reported Secreted PCSK9 associated with TG-06-133 (guide AUGGUAGGCACAAGCUCAGC; listed as RNA, chemistry not given here)
Result: 29.45

Ask: Request the reported Secreted PCSK9 associated with TG-06-129 (guide UUUUACACACCAUGUUCAAG; listed as RNA, chemistry not given here)
Result: 59.93

Ask: Request the reported Secreted PCSK9 associated with TG-06-131 (guide UGAACAUGGUGUGUAAAAGG; listed as RNA, chemistry not given here)
Result: 28.4

Ask: Request the reported Secreted PCSK9 associated with TG-06-124 (guide CAGUAUCGACAGCCCUUCCA; listed as RNA, chemistry not given here)
Result: 16.54

Ask: Request the reported Secreted PCSK9 associated with TG-06-154 (guide AGGGUGUGGGUGCUUGACGC; listed as RNA, chemistry not given here)
Result: 6.87

Ask: Request the reported Secreted PCSK9 associated with TG-06-142 (guide UUCCACUGGCCUUAACCUGG; listed as RNA, chemistry not given here)
Result: 30.87

Ask: Request the reported Secreted PCSK9 associated with TG-06-160 (guide CGCGCCCUGCUCCUGAACUU; listed as RNA, chemistry not given here)
Result: 20.63

Ask: Request the reported Secreted PCSK9 associated with TG-06-128 (guide AGAAAUCAACUGGACAAGCA; listed as RNA, chemistry not given here)
Result: 42.21

Ask: Request the reported Secreted PCSK9 associated with TG-06-172 (guide GCUGAAACAGAUGGAAUACU; listed as RNA, chemistry not given here)
Result: 44.44

Ask: Request the reported Secreted PCSK9 associated with TG-06-155 (guide GCAGCGACGUCGAGGCGCUC; listed as RNA, chemistry not given here)
Result: 29.45

Ask: Request the reported Secreted PCSK9 associated with TG-06-159 (guide GCGCGCCCCUUCACGCGCCC; listed as RNA, chemistry not given here)
Result: 53.15

Ask: Request the reported Secreted PCSK9 associated with TG-06-170 (guide UCGGCCUCCGGGUCUCCCAA; listed as RNA, chemistry not given here)
Result: 64.19

Ask: Request the reported Secreted PCSK9 associated with TG-06-146 (guide GAAGUCUCACUGGUCAGCAG; listed as RNA, chemistry not given here)
Result: 40.84

Ask: Request the reported Secreted PCSK9 associated with TG-06-117 (guide ACUUUGUUUGCAAAGACCUC; listed as RNA, chemistry not given here)
Result: 68.98

Ask: Request the reported Secreted PCSK9 associated with TG-06-158 (guide GGAGCAGGGCGCGUGAAGGG; listed as RNA, chemistry not given here)
Result: 9.39

Ask: Request the reported Secreted PCSK9 associated with TG-06-153 (guide GUUAAUGUUUAAUCAGAUAG; listed as RNA, chemistry not given here)
Result: 73.23

Ask: Request the reported Secreted PCSK9 associated with TG-06-149 (guide AGCCCAGUUAGGAUUUGGGA; listed as RNA, chemistry not given here)
Result: 21.18

Ask: Request the reported Secreted PCSK9 associated with TG-06-141 (guide ACUGGCCUUAACCUGGCAGC; listed as RNA, chemistry not given here)
Result: 13.86

Ask: Request the reported Secreted PCSK9 associated with TG-06-125 (guide AGAAAGAGCAAGCCUCAUGU; listed as RNA, chemistry not given here)
Result: 24.93

Ask: Request the reported Secreted PCSK9 associated with TG-06-169 (guide CGGGGUUGGGAGACCCGGAG; listed as RNA, chemistry not given here)
Result: 66.39

Ask: Request the reported Secreted PCSK9 associated with TG-06-121 (guide GGAAGGGCUGUCGAUACUGG; listed as RNA, chemistry not given here)
Result: 28.33
